System: HCT-15 colon
method-notes: NCI-60 one-dose screen, 48 h (100 = growth as untreated, 0 = no growth, -100 = all killed)
experimental-conditions: 10 µM unless noted
Protocol: Growth inhibition of the HCT-15 human tumor cell line is measured as a screen for anti-cancer activity. Cells are grown in 96 well plates and exposed to the test compound for 48 hours. Compounds are tested at a single concentration, which is 10^-5 M for most compounds. The reported endpoint is percent growth (GI% or GIPRCNT), where numbers from 0 - 100% represent growth inhibition, and numbers from -100% - 0 represent cell death. For example, a value of 40 represents 60% growth inhibition. […]
Compounds without any hit were thinned out: in the full panel of roughly 83,000, 20% have a hit. Activity calls are given as the source filed them. The calls were made as follows: active = growth percent below 10; inactive = the rest.
Measured growth accompanies every entry in the list below.

Previously resolved entries follow.
compound: CCOC(=O)NNc1[nH]c(-c2ccc(OC)cc2)cc1C#N
target: HCT-15 colon
reading: 107% (inactive)
//
compound: NCCCOc1cc(Cl)ccc1NC(=O)c1cc2ccccc2cc1OCCCN
target: HCT-15 colon
reading: 4.32% (active)
//
compound: CC(=O)Nc1ccc(CC#N)cc1Br
target: HCT-15 colon
reading: 105% (inactive)
//
compound: O=S(=O)(Cc1cccc2c(CS(=O)(=O)c3ccc(Cl)cc3)cccc12)c1ccc(Cl)cc1
target: HCT-15 colon
reading: 92.8% (inactive)
//
compound: COC(=O)C(C)[C@H]1CC[C@@H]2[C@]1(C)CC=C1[C@]23C=C[C@]2(C[C@@H](OC(C)=O)CC[C@]12C)C(C(=O)OC)C3C(=O)OC (stereo partly specified)
target: HCT-15 colon
reading: 61.5% (inactive)

Note to self: growth of "COc1ccc(-c2cc(C#N)c(NNC(C)=O)[nH]2)cc1" with HCT-15 colon was 117% (inactive)

Note to self: growth of CCOC(=O)C1=C(C(F)(F)F)NC(=O)NC1CN1C(=O)c2ccccc2C1=O (stereo unspecified) with HCT-15 colon was 123% (inactive)

Note to self: growth of "CCCCCCCCCCCCCCCCNC(=S)N/N=C/c1ccc(O)cc1O" with HCT-15 colon was 50.7% (inactive)

Note to self: growth of "Cc1nc2c(nnn2-c2ccccc2)c2nc(-c3ccc(Cl)cc3)oc(=O)c12" with HCT-15 colon was 108% (inactive)

Note to self: growth of "O=C(N/N=C/c1cc(Cl)ccc1O)C(=O)N/N=C/c1cc(Cl)ccc1O" with HCT-15 colon was 44.7% (inactive)

Note to self: growth of "Clc1ccc(N/N=C/c2ccccn2)nc1" with HCT-15 colon was 20.6% (inactive)

Note to self: growth of CC1(C)CC(=O)C2=C(C1)Oc1nc(N)c(C#N)c(N)c1C2c1ccc(F)cc1 (stereo unspecified) with HCT-15 colon was 123% (inactive)

Note to self: growth of "O=C(CCl)NC1c2ccccc2Oc2ccccc21" with HCT-15 colon was 50.8% (inactive)

Note to self: growth of "CN(C)CCOC(=O)C(C)(C)C" with HCT-15 colon was 101% (inactive)

Note to self: growth of "Oc1ccccc1\C=N/N=C/C=C/c1ccccc1" with HCT-15 colon was 103% (inactive)

Note to self: growth of CCC(C)C1NC(=O)C(CC(C)C)NC(=O)C(C)NC(=O)C(C(C)C)NC(=O)C(CCCCN)NC(=O)C(CC(C)C)NC(=O)C(C(C)C)NC(=O)[C@H](C)NC(=O)C(C(C)CC)NC(=O)C(CCCN=C(N)N)NC(=O)C(CCCCN)NC(=O)C(CCCN=C(N)N)NC(=O)C(CCCCN)NC(=O)C([C@H](C)CC)NC(=O)C(CCCCN)NC1=O (stereo partly specified) with HCT-15 colon was 26.7% (inactive)

Note to self: growth of "CCOC(=O)CCCCCCCCC(=O)OCC" with HCT-15 colon was 117% (inactive)

All values here come from PubChem BioAssay (NCI).
